molecular target: Aβ42 fibrils (Homo sapiens, UniProt P05067); construct: commercial Aβ42 monomer powder (from GL biochem); purchased GL biochem; experiment: Fluorescence saturation binding assay with Aβ42 fibrils; conditions: Table 1, amphiphilic compounds; read-out: Kd, Fibrils
Sequence (P05067 672-713 limits assumed): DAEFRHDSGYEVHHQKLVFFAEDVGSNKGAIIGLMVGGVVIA
pKd: −log10 of the molar value.
// reported pKd for each item listed

Smiles code | pKd
COc1cc(-c2ccc(/C=C/c3ccc(N(C)C)cc3)s2)cc(CN2CCN(C)CCN(C)CC2)c1O | 6.41
CN1CCN(C)CCN(Cc2cc(/C=C/c3ccc(-c4ccc(N(C)C)cc4)s3)ccc2O)CC1 | 5.74
COc1cc(OC)cc(-c2ccc(/C=C/c3cc(CN4CCN(C)CCN(C)CC4)c(O)c(OC)c3)cc2)c1 | 6.74
CN1CCN(C)CCN(Cc2cc(/C=C/c3ccc(-c4ccc(N(C)C)cc4)s3)cc(CN3CCN(C)CCN(C)CC3)c2O)CC1 | 5.78

* * *

Kd values by entry
biological target: Aβ42 fibrils (Homo sapiens); construct: commercial Aβ42 monomer powder (from GL biochem); purchased GL biochem; experiment: Fluorescence saturation binding assay with Aβ42 fibrils; settings: Table 1, amphiphilic compounds; read-out: Kd, Fibrils

Molecule | Measured target | Kd, µM
CN1CCN(C)CCN(Cc2cc(/C=C/c3ccc(-c4ccc(C=O)cc4)s3)cc(CN3CCN(C)CCN(C)CC3)c2O)CC1 [ZY-15-DT] | Aβ42 fibrils (Homo sapiens) | 1.27
COc1cc(/C=C/c2ccc(-c3ccc(C=O)cc3)s2)cc(CN2CCN(C)CCN(C)CC2)c1O [ZY-15-OMe] | Aβ42 fibrils (Homo sapiens) | 1.24
COc1cc(OC)cc(-c2ccc(/C=C/c3cc(CN4CCN(C)CCN(C)CC4)c(O)c(CN4CCN(C)CCN(C)CC4)c3)cc2)c1 [ZY-17-DT] | Aβ42 fibrils (Homo sapiens) | 2.25
COc1cc(OC)cc(-c2ccc(/C=C/c3ccc(O)c(CN4CCN(C)CCN(C)CC4)c3)cc2)c1 [ZY-17-MT] | Aβ42 fibrils (Homo sapiens) | 0.94

* * *

Molecular target: Aβ42 fibrils (Homo sapiens, UniProt P05067)
Construct: commercial Aβ42 monomer powder (from GL biochem); purchased GL biochem
Test: Fluorescence saturation binding assay with Aβ42 fibrils
Settings: Table 1, amphiphilic compounds; read-out: Kd, Fibrils
Description: Preparation of the Aβ42 Fibrils and Aβ42 Oligomers. Aβ42 fibrils: 1 mg of commercial Aβ42 monomer powder (from GL biochem) was dissolved in 1 mL 1,1,1,3,3,3-hexafluoro-2-propanol (HFIP) at room temperature and incubated for 1 h. […] In Vitro Saturation Binding Studies with Aβ42 Fibrils and Aβ42 Oligomers. […] Nonspecific binding was determined without compounds. […] All fluorescence data were obtained on a SpectraMax M2e plate reader (Molecular Devices). […]
pKd: −log10 of the molar value.
In this section, each of the molecules is paired with its reported pKd.

Smiles code | pKd
CN1CCN(C)CCN(Cc2cc(/C=C/c3ccc(-c4ccc(C=O)cc4)s3)ccc2O)CC1 | 6.28
CN1CCN(C)CCN(Cc2cc(-c3ccc(/C=C/c4ccc(N(C)C)cc4)s3)cc(CN3CCN(C)CCN(C)CC3)c2O)CC1 | 5.86
CN1CCN(C)CCN(Cc2cc(-c3ccc(/C=C/c4ccc(N(C)C)cc4)s3)ccc2O)CC1 | 5.38
COc1cc(/C=C/c2ccc(-c3ccc(N(C)C)cc3)s2)cc(CN2CCN(C)CCN(C)CC2)c1O | 6.17
